- study_system: HLA-A*02:01 (Homo sapiens, UniProt P04439, D140Y/D185E/D98H/E176V/E277Q/G131W/G231S/I119V/I121R/I166T/I218V/L300P/L318F/N151K/N90K/P208A/P217A/Q86G/Q94H/R138H/R169H/T345S)
- assay_notes: MHC binding assay, UV-ligand exchange with β2m ELISA, HLA-A*02:01
- test_parameters: peptide exchange yield
measurement_kind: Peptide exchange

// worked examples, Peptide exchange included
- 21 (FLFDKLLLI; listed as Homo sapiens) [compound 21]: “++++” (>75% = ++++)
- 23 (FAFSGVLRA; listed as Homo sapiens) [compound 23]: “++” (>20% = ++)
- 20 (FSLEDLVRI; listed as Homo sapiens) [compound 20]: “++” (>20% = ++)
- 206 (SLMDLQERL; listed as Homo sapiens) [compound 206]: “+++” (>50 = +++)
- 197 (SLADVHIEV; listed as Homo sapiens) [compound 197]: “++++” (>75% = ++++)
- 200 (VMLQINPKL; listed as Homo sapiens) [compound 200]: “+++” (>50 = +++)

Lab note: next substance to report on.
Look up Peptide exchange for this substance: 203 (FLLPKVQSI; listed as Homo sapiens) [compound 203]
“++++” (>75% = ++++)

----------
- study_system: HLA-B*44:02 (Homo sapiens, UniProt P01889, A223V/A65T/A93T/A95T/D201E/D98Y/E176V/E187L/E204Q/E69K/G107R/H137Y/K202T/L105A/L119I/N104T/N87E/Q56L/Q94N/R106L/R155S/R180D/S101N/S121R/S35A/S48T/T118I/V36M/W191S/Y140D/Y91S)
- assay_notes: MHC binding assay, UV-ligand exchange with β2m ELISA, HLA-B*44:02
- test_parameters: binding to HLA-B*44:02, UV-ligand exchange
measurement_kind: Peptide exchange (MHC class I binding score, peptide exchange yield)

Below, 4 substances whose answers are already recorded.
• 172 (VEDGLFHEF; listed as Homo sapiens) [compound 172] = “+++” (>50 = +++)
• 149 (SEKETVAYF; listed as Homo sapiens) [compound 149] = “+++” (>50 = +++)
• 151 (EVDASIFKAW; listed as Homo sapiens) [compound 151] = “++” (>20% = ++)
• 135 (NEIKVYITF; listed as Homo sapiens) [compound 135] = “+++” (>50 = +++)

We next turn to a different substance, shown below.
I have this substance here, 271 (AESEDLAVHLY; listed as Homo sapiens) [compound 271] , and I need its recorded Peptide exchange (MHC class I binding score, peptide exchange yield).
“++” (>20% = ++)

----------
- study_system: HLA-A*02:01 (Homo sapiens, UniProt P04439, D140Y/D185E/D98H/E176V/E277Q/G131W/G231S/I119V/I121R/I166T/I218V/L300P/L318F/N151K/N90K/P208A/P217A/Q86G/Q94H/R138H/R169H/T345S)
- assay_notes: MHC binding assay, UV-ligand exchange with β2m ELISA, HLA-A*02:01
- test_parameters: peptide exchange yield
measurement_kind: Peptide exchange

Record excerpt, results attached:
• 26 (SLYVQQLKI; listed as Homo sapiens) [compound 26] = “++++” (>75% = ++++)
• 24 (KLGPVAVSI; listed as Homo sapiens) [compound 24] = “++++” (>75% = ++++)
• 19 (SLFEGIYTI; listed as Homo sapiens) [compound 19] = “++++” (>75% = ++++)
• 204 (FLLPKVQSIQL; listed as Homo sapiens) [compound 204] = “+++” (>50 = +++)
• 199 (AMPDSPAEV; listed as Homo sapiens) [compound 199] = “++++” (>75% = ++++)

What value of Peptide exchange has been reported for the following substance? 198 (KLLGYDVHV; listed as Homo sapiens) [compound 198]
“+++” (>50 = +++)

I'd like to know its Peptide exchange. The substance in question is 201 (ILAAVETRL; listed as Homo sapiens) [compound 201]
“+++” (>50 = +++)

Would you kindly share the measured Peptide exchange for 25 (YLNEKSLQL; listed as Homo sapiens) [compound 25] ?
“++++” (>75% = ++++)

What Peptide exchange value was documented for this substance, 22 (ILHAQTLKI; listed as Homo sapiens) [compound 22] ?
“+++” (>50 = +++)

----------
- study_system: HLA-B*44:02 (Homo sapiens, UniProt P01889, A223V/A65T/A93T/A95T/D201E/D98Y/E176V/E187L/E204Q/E69K/G107R/H137Y/K202T/L105A/L119I/N104T/N87E/Q56L/Q94N/R106L/R155S/R180D/S101N/S121R/S35A/S48T/T118I/V36M/W191S/Y140D/Y91S)
- assay_notes: MHC binding assay, UV-ligand exchange with β2m ELISA, HLA-B*44:02
- test_parameters: binding to HLA-B*44:02, UV-ligand exchange
measurement_kind: Peptide exchange (MHC class I binding score, peptide exchange yield)

- 273 (AEIEIVKEEF; listed as Homo sapiens) [compound 273]: “++” (>20% = ++)
- 265 (QEVDASIFKAW; listed as Homo sapiens) [compound 265]: “+++” (>50 = +++)
- 259 (EENTLVQNY; listed as Homo sapiens) [compound 259]: “++” (>20% = ++)
- 142 (TEIFKEHNF; listed as Homo sapiens) [compound 142]: “++” (>20% = ++)
- 167 (KEIGAAVQAL; listed as Homo sapiens) [compound 167]: “+++” (>50 = +++)
- 146 (SESKTVVTY; listed as Homo sapiens) [compound 146]: “+++” (>50 = +++)

Proceeding to the next substance to report its Peptide exchange (MHC class I binding score, peptide exchange yield).
Dear colleague, I am looking for the recorded Peptide exchange (MHC class I binding score, peptide exchange yield) of the following substance: 184 (RMPPFTQAF; listed as Homo sapiens) [compound 184]
“++” (>20% = ++)

----------
- study_system: HLA-B*07:02 (Homo sapiens, UniProt P01889)
- assay_notes: MHC binding assay, UV-ligand exchange with β2m ELISA, HLA-B*07:02
- test_parameters: binding to HLA-B*07:02, UV-ligand exchange
- Source text: Candidate peptides for T cell based therapies according to the present invention were further tested for their MHC binding capacity (affinity). The individual peptide-MHC complexes were produced by UV-ligand exchange, where a UV-sensitive peptide is cleaved upon UV-irradiation, and exchanged with the peptide of interest as analyzed. Only peptide candidates that can effectively bind and stabilize the peptide-receptive MHC molecules prevent dissociation of the MHC complexes. […]
measurement_kind: Peptide exchange (MHC class I binding score, peptide exchange yield)

- 91 (KPKAAKPKAA; listed as Homo sapiens) [compound 91]: “++” (>20% = ++)
- 84 (SPKLQIAAM; listed as Homo sapiens) [compound 84]: “+++” (>50 = +++)
- 101 (NPRYPNYMF; listed as Homo sapiens) [compound 101]: “+++” (>50 = +++)
- 231 (MPLSTIREV; listed as Homo sapiens) [compound 231]: “++” (>20% = ++)
- 86 (IPASHPVL; listed as Homo sapiens) [compound 86]: “++” (>20% = ++)

Peptide exchange (MHC class I binding score, peptide exchange yield) for 104 (RPMTPTQIGPSL; listed as Homo sapiens) [compound 104] ?
“+++” (>50 = +++)

May I ask what Peptide exchange (MHC class I binding score, peptide exchange yield) has been recorded for 97 (LPFGKIPIL; listed as Homo sapiens) [compound 97] ?
“++” (>20% = ++)

Which Peptide exchange (MHC class I binding score, peptide exchange yield) is listed for 247 (QPSPARAPAEL; listed as Homo sapiens) [compound 247] ?
“++” (>20% = ++)

Give the measured Peptide exchange (MHC class I binding score, peptide exchange yield) of 100 (YPYQERVFL; listed as Homo sapiens) [compound 100] .
“++” (>20% = ++)

----------
- study_system: HLA-B*44:02 (Homo sapiens, UniProt P01889, A223V/A65T/A93T/A95T/D201E/D98Y/E176V/E187L/E204Q/E69K/G107R/H137Y/K202T/L105A/L119I/N104T/N87E/Q56L/Q94N/R106L/R155S/R180D/S101N/S121R/S35A/S48T/T118I/V36M/W191S/Y140D/Y91S)
- assay_notes: MHC binding assay, UV-ligand exchange with β2m ELISA, HLA-B*44:02
- test_parameters: binding to HLA-B*44:02, UV-ligand exchange
measurement_kind: Peptide exchange (MHC class I binding score, peptide exchange yield)

- 128 (GENDRLNHTY; listed as Homo sapiens) [compound 128]: “++” (>20% = ++)
- 124 (SESLPKEAF; listed as Homo sapiens) [compound 124]: “++” (>20% = ++)
- 168 (QEIQSLLTNW; listed as Homo sapiens) [compound 168]: “+++” (>50 = +++)
- 177 (QENMQIQSF; listed as Homo sapiens) [compound 177]: “+++” (>50 = +++)
- 270 (AESEDLAVHL; listed as Homo sapiens) [compound 270]: “++” (>20% = ++)
- 131 (EEFETIERF; listed as Homo sapiens) [compound 131]: “++” (>20% = ++)
- 127 (TEYPVFVY; listed as Homo sapiens) [compound 127]: “+” (>10% = +)
- 134 (SEYADTHYF; listed as Homo sapiens) [compound 134]: “+++” (>50 = +++)
- 260 (AEIGEGAYGKVF; listed as Homo sapiens) [compound 260]: “+++” (>50 = +++)
- 152 (AELLAKELY; listed as Homo sapiens) [compound 152]: “++” (>20% = ++)

For 159 (GELLGRQSF; listed as Homo sapiens) [compound 159] , what is its reported Peptide exchange (MHC class I binding score, peptide exchange yield)?
“+++” (>50 = +++)

Dear colleague, I am looking for the recorded Peptide exchange (MHC class I binding score, peptide exchange yield) of the following substance: 157 (VEIAEAIQL; listed as Homo sapiens) [compound 157]
“+++” (>50 = +++)

Could you share which Peptide exchange (MHC class I binding score, peptide exchange yield) value was measured for 141 (REYEYDLKWEF; listed as Homo sapiens) [compound 141] ?
“+++” (>50 = +++)

Report Peptide exchange (MHC class I binding score, peptide exchange yield) for 185 (SEGDNVESW; listed as Homo sapiens) [compound 185] please.
“+++” (>50 = +++)

Suppose we examine the substance 179 (AEIKQTEEKY; listed as Homo sapiens) [compound 179] ; what Peptide exchange (MHC class I binding score, peptide exchange yield) value has been reported?
“++” (>20% = ++)

Recorded Peptide exchange (MHC class I binding score, peptide exchange yield) for 123 (EENPGKFLF; listed as Homo sapiens) [compound 123] , please?
“+++” (>50 = +++)

Fill blank: measured Peptide exchange (MHC class I binding score, peptide exchange yield) of the substance 176 (AENAVSNLSF; listed as Homo sapiens) [compound 176] is ____.
“++” (>20% = ++)

Please report the recorded Peptide exchange (MHC class I binding score, peptide exchange yield) for 133 (AEHNFVAKA; listed as Homo sapiens) [compound 133] .
“+++” (>50 = +++)

Would you mind telling me what Peptide exchange (MHC class I binding score, peptide exchange yield) value was observed for 186 (NEQKIVRF; listed as Homo sapiens) [compound 186] ?
“+” (>10% = +)
